observedProperty: melting point

>>> df
                                 smilesrepr  observedproperty            val
0  CCc1nnc(Cl)c(-c2c(F)cc(F)cc2F)c1-c1ccc(Cl)nc1     melting point  125 to 126 °C

Value of melting point reported for the compound COc1cc(F)c(-c2c(Cl)nnc(C)c2-c2ccc(Cl)nc2)c(F)c1 is 148 to 149 °C

Value of melting point reported for the compound CC(C)c1nnc(Cl)c(-c2c(F)cc(F)cc2F)c1-c1ccc(Cl)nc1 is 146 to 149 °C

Value of melting point reported for the compound COc1nnc(C)c(-c2ccc(Cl)nc2)c1-c1c(F)cc(F)cc1F is 123 to 124 °C

Value of melting point reported for the compound Cc1nnc(Cl)c(-c2c(F)cc(F)cc2F)c1-c1cnc(Cl)c(Cl)c1 is 185 to 188 °C

Source: patent US8410026B2
